System: KM12 colon
assay_summary: NCI tumour cell line growth inhibition, 48 h
parameter_measured: TGI

I have this compound here, `O=[N+]([O-])c1cc2ccc(N(CCO)CCO)nc2nc1N(CCO)CCO` , and I need its recorded TGI.
> 100 µM

Which value of TGI has been reported for `Cc1ccc(N=Nc2c(O)ccc3cc(S(=O)(=O)O)ccc23)cc1` in the records?
> 100 µM

// lookup TGI for `c1ccc(Nc2nn3c(CCCCCCCCc4nnc5sc(Nc6ccccc6)nn45)nnc3s2)cc1`
> 100 µM

Would you mind telling me what TGI value was observed for `CCSc1nc(=S)n(-c2ccccc2)c(C)c1C(C)=O` ?
> 100 µM

I'd like to know its TGI. The compound in question is `COC(=O)[C@]1(c2ccc(N(C)C)cc2OC)C[C@@H]2CCCN(CCc3c1[nH]c1ccccc31)C2`
> 55.9 µM

Would you kindly share the measured TGI for `O=[N+]([O-])c1cc(F)ccc1S(=O)(=O)c1ccccc1` ?
> 10 µM

Entry `N#CC(C#N)=Cc1ccc(CP(=O)(O)O)cc1` has what TGI?
> 100 µM

Data request, read-out TGI, for `O[C@@H]1CCC[C@@H]2NC[C@@H](c3ccc4c(c3)OCO4)[C@H]12`
> 100 µM

Recorded TGI of O=C(c1cccnc1)N1N=C(c2ccccc2)CC1(O)c1cc(F)c(Cl)cc1Cl (centres undefined) , please.
> 100 µM

Looking for the measured TGI of `NCCCNOCCCN` , can you help?
> 100 µM

Query (compound): COC(=O)CNC(=O)CCC(C)[C@H]1CCC2C3C(C[C@H](OC(C)=O)[C@@]21C)[C@@]1(C)CCC2(C[C@H]1C[C@H]3OC(C)=O)OOC1(CC[C@]3(C)C4C[C@H](OC(C)=O)[C@@]5(C)C(CC[C@@H]5C(C)CCC(=O)NCC(=O)OC)C4[C@H](OC(C)=O)C[C@@H]3C1)OO2 (some centres undefined) ; field requested: TGI
41.2 µM

So what's the measured TGI for this one? `O=C(O)/C(=C\c1ccc(O)cc1)c1cccc2ccccc12`
> 100 µM

Reported TGI, compound CC1CC(C)C2OC2(C)C[C@H](C)C(=O)NC(C)C(=O)N(C)[C@H](Cc2c(Br)[nH]c3ccccc23)C(=O)N[C@@H](c2ccc(O)cc2)CC(=O)O1 (some centres undefined) : ____
> 100 µM

I am curious: what TGI value has been reported for CCCCc1ccc(Nc2nc(Cl)c3ccn(C4CC(Oc5ccc(C)cc5)C(COc5ccc(C)cc5)O4)c3n2)cc1 (centres undefined) ?
> 46.4 µM

Tell me the measured TGI of `CCCN(CCC)C(=O)c1nc(N)nc(-c2ccc(OC)cc2)c1-c1ccc(OC)cc1` , please.
> 100 µM

Look up TGI: Cc1cccc(C)c1N1C(=O)C(=O)C(c2nc3ccccc3s2)/C(=N/NC(=O)c2ccccc2O)C1=O (centres undefined)
> 100 µM

Bench note: what TGI did `Nc1nc(SCc2ccccc2Cl)cc(C(=O)O)n1` show?
> 100 µM

Would you kindly share the measured TGI for Cc1ccc(S(=O)(=O)N/N=C2\CC3CC4CCC2C4C3)cc1 (centres undefined) ?
> 100 µM

Consider the compound shown here: `O=C(Nc1ccccc1-c1nn(CN2CCNCC2)c(=S)n(CN2CCNCC2)c1=O)C(F)(F)F` What is its recorded TGI?
40.7 µM
